The entries below come with measured electrical conductivity values attached.
details: 268.15 K; 101.33 kPa; Liquid; Symmetrical Wheatstone bridge
Number first, unit second.

[
  {
    "compound": "CCn1cc[n+](C)c1.F[B-](F)(F)F [1-ethyl-3-methylimidazolium tetrafluoroborate]",
    "assay-result": "0.432 S/m"
  },
  {
    "compound": "CCn1cc[n+](C)c1.O=S(=O)([N-]S(=O)(=O)C(F)(F)F)C(F)(F)F",
    "assay-result": "0.267 S/m"
  }
]

input: Quick check: electrical conductivity of CCCCn1cc[n+](C)c1.F[B-](F)(F)F [1-butyl-3-methylimidazolium tetrafluoroborate] ?
output: 0.0548 S/m

input: // lookup electrical conductivity for CCn1cc[n+](C)c1.N#CN=C=[N-] [1-ethyl-3-methylimidazolium dicyanamide]
output: 1.04 S/m

---

conditions: 258.15 K; 101.33 kPa; Liquid; Symmetrical Wheatstone bridge
assay-readout: electrical conductivity (S/m)
The answer is to be given in S/m; state only the numeric part.

Worked examples follow.
[
  {
    "compound": "CCn1cc[n+](C)c1.O=S(=O)([N-]S(=O)(=O)C(F)(F)F)C(F)(F)F",
    "assay-result": 0.148
  },
  {
    "compound": "CCn1cc[n+](C)c1.F[B-](F)(F)F [1-ethyl-3-methylimidazolium tetrafluoroborate]",
    "assay-result": 0.233
  },
  {
    "compound": "CCCCn1cc[n+](C)c1.F[B-](F)(F)F [1-butyl-3-methylimidazolium tetrafluoroborate]",
    "assay-result": 0.0232
  }
]

With those in mind, consider the next compound.
input: Given the compound CCn1cc[n+](C)c1.N#CN=C=[N-] [1-ethyl-3-methylimidazolium dicyanamide] , what is its reported electrical conductivity?
output: 0.631

---

conditions: 303.15 K; 101.33 kPa; Liquid; Capillary tube (Ostwald / Ubbelohde) method
Quick list: viscosity per entry.
Quick note: give the figure in mPa·s, leave out the unit.

Answered cases to consult:
[
  {
    "compound": "CCn1cc[n+](C)c1.O=S(=O)([N-]S(=O)(=O)C(F)(F)F)C(F)(F)F",
    "viscosity, mPa·s": 27.3
  },
  {
    "compound": "CCCCn1cc[n+](C)c1.F[B-](F)(F)F [1-butyl-3-methylimidazolium tetrafluoroborate]",
    "viscosity, mPa·s": 83.3
  },
  {
    "compound": "CCn1cc[n+](C)c1.N#CN=C=[N-] [1-ethyl-3-methylimidazolium dicyanamide]",
    "viscosity, mPa·s": 12.62
  }
]

input: What value of measured viscosity is listed for CCn1cc[n+](C)c1.F[B-](F)(F)F [1-ethyl-3-methylimidazolium tetrafluoroborate] ?
output: 30.13

---

conditions: 278.15 K; 101.33 kPa; Liquid; Symmetrical Wheatstone bridge
assay-readout: electrical conductivity (S/m)
Numbers only; they are read as S/m.

Example results:
[
  {
    "compound": "CCCCn1cc[n+](C)c1.F[B-](F)(F)F [1-butyl-3-methylimidazolium tetrafluoroborate]",
    "unit-spec": "S/m",
    "electrical conductivity": 0.114
  },
  {
    "compound": "CCn1cc[n+](C)c1.N#CN=C=[N-] [1-ethyl-3-methylimidazolium dicyanamide]",
    "unit-spec": "S/m",
    "electrical conductivity": 1.56
  },
  {
    "compound": "CCn1cc[n+](C)c1.O=S(=O)([N-]S(=O)(=O)C(F)(F)F)C(F)(F)F",
    "unit-spec": "S/m",
    "electrical conductivity": 0.435
  }
]

In the following, a different compound is considered.
input: Recorded electrical conductivity of CCn1cc[n+](C)c1.F[B-](F)(F)F [1-ethyl-3-methylimidazolium tetrafluoroborate] , please.
output: 0.717

These measurements were taken from the NIST ThermoML archive (doi:10.1021/je900878j).
